# measurement protocol: RP, Waters ACQUITY UPLC BEH C18, 100 × 2.1 mm, 1.7 µm, 65 °C, 0.4 mL/min, estimated dead time 0.55 min; A: water + 0.1% formic acid, pH 3; B: 80% acetonitrile + 20% acetone + 0.1% formic acid, pH 3; gradient (min/%B) 0/0 5/100 5.5/0 6/0
# conditions used: stereoisomer not certain
parameter: LC retention time (min)

Look over these answered cases.
> print(dat)
                                   compound          parameter  observed
1                          COc1cc(C=O)ccc1O  LC retention time      2.03
2  CC(C)C(O)(CC(=O)O)C(=O)O (stereo not given)  LC retention time      1.72
3  O=C(O)C(O)Cc1c[nH]c2ccccc12 (stereo not given)  LC retention time      2.14
4  O=C(O)C1OC(Oc2cc(O)c3c(=O)c(-c4ccc(O)cc4)coc3c2)C(O)C(O)C1O (stereo not given) [Genistein 7-O-glucuronide]  LC retention time       2.1
5                       COc1cc(C(=O)O)ccc1O  LC retention time       1.8
6  CC1(O)Cc2c(O)cc(O)cc2OC1c1ccc(O)c(O)c1 (stereo not given) [3-Methylepicatechin]  LC retention time      1.99

I: CC(O)(CCO)CC(=O)[O-] (stereo not given)
II: O=Cc1c[nH]c2ccccc12
QUERY: // returns I or II , whichever has the lower LC retention time Give the chosen item's label as your response.
RESULT: I

A: O=c1c(O)c(-c2ccc(O)c(O)c2)oc2cc(O)cc(O)c12
B: Cn1c(=O)c2[nH]cnc2n(C)c1=O
QUERY: // compare: A vs B , metric LC retention time, want the smaller Bench note: the answer is the label of the chosen record.
RESULT: B
(B: 1.5 min, A: 2.63 min)
